- Tested on: ZIKV MR766 NS1
- assay-procedure: microbe, parasite or virus in culture
- Type: cell-based, Zika virus
- experimental-setup: Zika virus, HEK293, 48 h, read-out: NS1-IC50
Can you tell me IC50 for the items I'm about to list?
One number for each entry, in nM.

These recorded examples may help you get a feel for the data.
[
  {
    "molecule": "CC[C@H](CC#N)OC(=O)N[C@@H](C)c1cccc(NC(=O)Nc2ccc(-c3cnco3)c(OC)c2)c1 [AVN-944]",
    "measured-target": "ZIKV MR766 NS1",
    "unit-text": "nM",
    "IC50": 136
  },
  {
    "molecule": "CC(C)C[C@H](NC(=O)CNC(=O)c1cc(Cl)ccc1Cl)B(O)O [MLN-2238]",
    "measured-target": "ZIKV MR766 NS1",
    "unit-text": "nM",
    "IC50": 234
  },
  {
    "molecule": "CC[C@@H]1C(=O)N(C)c2cnc(Nc3ccc(C(=O)N[C@H]4CC[C@H](N5CCN(CC6CC6)CC5)CC4)cc3OC)nc2N1C(C)C [Volasertib]",
    "measured-target": "ZIKV MR766 NS1",
    "unit-text": "nM",
    "IC50": 64.8
  },
  {
    "molecule": "O=c1[nH]c(=O)n([C@H]2C[C@H](O)[C@@H](CO)O2)cc1F [Floxuridine]",
    "measured-target": "ZIKV MR766 NS1",
    "unit-text": "nM",
    "IC50": 918
  },
  {
    "molecule": "COc1c(C)c2c(c(O)c1C/C=C(\\C)CCC(=O)O)C(=O)OC2 [Mycophenolic acid]",
    "measured-target": "ZIKV MR766 NS1",
    "unit-text": "nM",
    "IC50": 539
  }
]

# get_value(readout='IC50', item= Cc1ccc(C(=O)N(CCCN)[C@@H](c2nc3cc(Cl)ccc3c(=O)n2Cc2ccccc2)C(C)C)cc1 [Ispinesib] )
67.4
